As shown below, each of these variants has a reported normalized RNA/DNA level with ligand (log10) value.
B1: library; a variant is named by its letters at N, in order (parent)
chain: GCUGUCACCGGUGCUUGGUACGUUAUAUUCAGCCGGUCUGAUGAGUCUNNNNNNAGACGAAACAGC

- Variants of: B1
- testDescription: normalized RNA/DNA level with ligand (relative to sTRSVctl = 100) (log10 (% of sTRSVctl)); HEK293T overexpressing SLC46A1; ligand concentration (+) RNA-Seq: 6 mM; higher = less ribozyme self-cleavage, higher mRNA level
- conditionContext: with (6R,S)-folinic acid; ligand present: yes
Reply briefly: the number, and no unit.

Previously resolved entries follow.
AAUUUG 2.02
GCUUAG 2.01
ACCCCC 2
CGUCGC 2
GCAUUA 2.03
AACCCG 2.02
CGUAGG 1.98
AGUGAG 1.96
UAGUUA 1.98
CCAAAA 1.96

*Q* Requested field: normalized RNA/DNA level with ligand (log10). Item: AAACGA
*A* 2.03

*Q* Data request, read-out normalized RNA/DNA level with ligand (log10), for AUCAAU
*A* 2

*Q* I have this variant here, CUAUAU , and I need its recorded normalized RNA/DNA level with ligand (log10).
*A* 2.03

*Q* If you can, please state the reported normalized RNA/DNA level with ligand (log10) value of GUACGU .
*A* 2.03

*Q* Give the measured normalized RNA/DNA level with ligand (log10) of UGCUGC .
*A* 2.01

*Q* Would you kindly share the measured normalized RNA/DNA level with ligand (log10) for GCCACA ?
*A* 2.03

*Q* Item under review: UAUAGA . Reported normalized RNA/DNA level with ligand (log10)?
*A* 1.99

*Q* Give the measured normalized RNA/DNA level with ligand (log10) of GCUGUA .
*A* 2.04

*Q* Any idea what its normalized RNA/DNA level with ligand (log10) is? The variant is UUAGUA
*A* 1.98

*Q* What does the data say about its normalized RNA/DNA level with ligand (log10)? Entry: GCCCAU
*A* 2.02

*Q* # get_value(readout='normalized RNA/DNA level with ligand (log10)', item= GGCGAG )
*A* 2.02

The origin of these recorded values is the supplement of paper PMC6757056.
